The origin of these recorded values is patent US20240294541A1.

- Tested on: MIA PaCa-2 (human pancreatic cancer)
- PROTOCOL: cells
- Assay type: cell-based
- RUN CONDITIONS: Table 4; MIA PaCa-2 human pancreatic cancer cells; read-out: IC50 (nM) MIA PaCa-2

CHEMICAL STRING | IC50 / nM
CC[C@@H](C(=O)[C@@H](C)[C@@H](O)[C@H](C)[C@@H]1O[C@@H]([C@@H](CC)C(=O)O)CC[C@@H]1C)[C@H]1O[C@]2(C=C[C@@H](NC(=O)OCCCCCCCl)[C@]3(CC[C@@](C)([C@H]4CC[C@](O)(CC)[C@H](C)O4)O3)O2)[C@H](C)C[C@@H]1C | 21.3
CC[C@@H](C(=O)[C@@H](C)[C@@H](O)[C@H](C)[C@@H]1O[C@@H]([C@@H](CC)C(=O)O)CC[C@@H]1C)[C@H]1O[C@]2(C=C[C@@H](NC(=O)OCc3ccccc3)[C@]3(CC[C@@](C)([C@H]4CC[C@](O)(CC)[C@H](C)O4)O3)O2)[C@H](C)C[C@@H]1C | 28.9
CC[C@@H](C(=O)[C@@H](C)[C@@H](O)[C@H](C)[C@@H]1O[C@@H]([C@@H](CC)C(=O)O)CC[C@@H]1C)[C@H]1O[C@]2(C=C[C@@H](NC(=S)Nc3cccc(C(F)(F)F)c3)[C@]3(CC[C@@](C)([C@H]4CC[C@](O)(CC)[C@H](C)O4)O3)O2)[C@H](C)C[C@@H]1C | 11.3
CC[C@@H](C(=O)[C@@H](C)[C@@H](O)[C@H](C)[C@@H]1O[C@@H]([C@@H](CC)C(=O)O)CC[C@@H]1C)[C@H]1O[C@]2(C=C[C@@H](NC(=O)Nc3ccc(Cl)c(Cl)c3)[C@]3(CC[C@@](C)([C@H]4CC[C@](O)(CC)[C@H](C)O4)O3)O2)[C@H](C)C[C@@H]1C | 489
CC[C@@H](C(=O)[C@@H](C)[C@@H](O)[C@H](C)[C@@H]1O[C@@H]([C@@H](CC)C(=O)O)CC[C@@H]1C)[C@H]1O[C@]2(C=C[C@@H](NC(=O)C(=O)NCC3CC3)[C@]3(CC[C@@](C)([C@H]4CC[C@](O)(CC)[C@H](C)O4)O3)O2)[C@H](C)C[C@@H]1C | 102
CC[C@@H](C(=O)[C@@H](C)[C@@H](O)[C@H](C)[C@@H]1O[C@@H]([C@@H](CC)C(=O)O)CC[C@@H]1C)[C@H]1O[C@]2(C=C[C@@H](NC(=O)C(=O)NC3CC3)[C@]3(CC[C@@](C)([C@H]4CC[C@](O)(CC)[C@H](C)O4)O3)O2)[C@H](C)C[C@@H]1C | 373
CC[C@@H](C(=O)[C@@H](C)[C@@H](O)[C@H](C)[C@@H]1O[C@@H]([C@@H](CC)C(=O)O)CC[C@@H]1C)[C@H]1O[C@]2(C=C[C@@H](NC(=O)C(=O)NCCc3ccccc3)[C@]3(CC[C@@](C)([C@H]4CC[C@](O)(CC)[C@H](C)O4)O3)O2)[C@H](C)C[C@@H]1C | 53.7
CC[C@@H](C(=O)[C@@H](C)[C@@H](O)[C@H](C)[C@@H]1O[C@@H]([C@@H](CC)C(=O)O)CC[C@@H]1C)[C@H]1O[C@]2(C=C[C@@H](NC(=O)OCC(F)F)[C@]3(CC[C@@](C)([C@H]4CC[C@](O)(CC)[C@H](C)O4)O3)O2)[C@H](C)C[C@@H]1C | 26.8
